biological target: T1, monkey 4-1BB on CHOK1 cells (monkey); assay: FACS, CHOK1-c4-1BB cells; Ab 2 ug/ml
T1 construct: whole, on cells; also called CHOK1-c4-1BB
ASSAY METRIC: average fluorescence intensity (MFI)
The figure you give is taken to be in MFI; do not add the unit.

**Q:** Look up and state reported average fluorescence intensity for 170D7F2 (antibody, V domains shown) VH: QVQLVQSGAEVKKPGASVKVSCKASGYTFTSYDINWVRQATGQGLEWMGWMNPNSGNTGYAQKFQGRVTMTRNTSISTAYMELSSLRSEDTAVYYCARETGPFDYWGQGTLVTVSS VL: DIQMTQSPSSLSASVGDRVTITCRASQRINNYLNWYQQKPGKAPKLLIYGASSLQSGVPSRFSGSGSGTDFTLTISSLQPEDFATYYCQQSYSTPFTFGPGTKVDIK
**A:** 621

**Q:** Look up and state reported average fluorescence intensity for 172E3E3 (antibody, V domains shown) VH: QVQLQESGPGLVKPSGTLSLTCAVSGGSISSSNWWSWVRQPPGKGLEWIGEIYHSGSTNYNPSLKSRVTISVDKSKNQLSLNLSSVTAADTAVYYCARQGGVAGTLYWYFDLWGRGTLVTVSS VL: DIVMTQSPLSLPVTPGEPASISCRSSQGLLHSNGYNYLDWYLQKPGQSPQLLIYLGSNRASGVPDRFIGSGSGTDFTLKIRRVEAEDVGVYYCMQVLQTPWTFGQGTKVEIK
**A:** 305

**Q:** Look up and state reported average fluorescence intensity for 113F6C6 (antibody, V domains shown, also called 4-1BB fully human antibody 113F6C6; 113F6F6) VH: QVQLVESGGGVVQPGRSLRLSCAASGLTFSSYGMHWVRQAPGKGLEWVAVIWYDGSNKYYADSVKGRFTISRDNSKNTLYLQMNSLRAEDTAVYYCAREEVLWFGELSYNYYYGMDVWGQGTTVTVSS VL: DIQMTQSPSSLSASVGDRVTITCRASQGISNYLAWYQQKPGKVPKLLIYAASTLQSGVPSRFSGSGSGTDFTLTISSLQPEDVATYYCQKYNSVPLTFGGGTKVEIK
**A:** 438

**Q:** Look up and state reported average fluorescence intensity for 118F3A2 (antibody, V domains shown) VH: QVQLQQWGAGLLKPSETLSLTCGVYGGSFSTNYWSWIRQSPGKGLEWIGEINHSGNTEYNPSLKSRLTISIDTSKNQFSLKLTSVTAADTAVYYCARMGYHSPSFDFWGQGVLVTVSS VL: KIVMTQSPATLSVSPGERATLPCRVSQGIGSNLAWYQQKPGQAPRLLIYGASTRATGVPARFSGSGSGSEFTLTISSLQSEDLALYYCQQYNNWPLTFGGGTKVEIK
**A:** 688

**Q:** Look up and state reported average fluorescence intensity for 52F4G2 (antibody, V domains shown) VH: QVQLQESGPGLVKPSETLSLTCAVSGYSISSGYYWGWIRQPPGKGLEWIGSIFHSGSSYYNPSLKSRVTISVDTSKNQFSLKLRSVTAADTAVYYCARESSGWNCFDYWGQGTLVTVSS VL: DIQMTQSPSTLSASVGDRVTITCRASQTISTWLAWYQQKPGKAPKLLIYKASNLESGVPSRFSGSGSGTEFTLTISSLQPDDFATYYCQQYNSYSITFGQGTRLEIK
**A:** 679
